// provenance: paper PMC2800207

pKd for assorted binders
Target: NusB D118N (NusB101) (Escherichia coli, UniProt P0A780 1-139, D118N)
Experiment: fluorescence anisotropy
Please keep in mind that pKd is minus log10 of the molar concentration; only the number is needed.

Here's what some known entries look like.
CACUGCUCUUUAACAAUUA (ssRNA) [rrnG BoxA-spacer] = 7.62
CGCUCUUA (ssRNA) [nutR BoxA] = 6.54

Shift focus to the following entry.
Given the entry UGCUCUUUA (ssRNA) [rrnG BoxA] , report its measured pKd.
7.30
